B1: glmS ribozyme (parent)
chain: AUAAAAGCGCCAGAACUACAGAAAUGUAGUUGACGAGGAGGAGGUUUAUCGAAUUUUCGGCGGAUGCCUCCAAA

# Variants of: B1
# ASSAY_TEXT: self-cleavage kobs at 40 uM GlcN6P; higher = faster cleavage; RNA array
# COND: with glucosamine-6-phosphate
Fewer inactive variants are shown than the library holds.
self-cleavage kobs at 40 uM GlcN6P: recorded values

| MUTANT_DESIGNATION | self-cleavage kobs at 40 uM GlcN6P |
| --- | --- |
| U30C G38C | < 1e-05 s⁻¹ |
| G7U C8U | < 1e-05 s⁻¹ |
| A12C C34U G44C U56A U57A | < 1e-05 s⁻¹ |
| U31C G35U A39C G44U U55A | < 1e-05 s⁻¹ |
| C8U C50G | 0.00012 s⁻¹ |
| C50G C58A C68G C71U | 9.15e-05 s⁻¹ |
| G7U A14G G32C A39U | < 1e-05 s⁻¹ |
| A52G C61U | < 1e-05 s⁻¹ |
| G9U G41C A42U G44A | < 1e-05 s⁻¹ |
| A42U U49G U57A C61G | < 1e-05 s⁻¹ |
| A12C A15C A42U U57G C61G C71U | < 1e-05 s⁻¹ |
| G38C G44U | < 1e-05 s⁻¹ |
| A12U U57C C61A | < 1e-05 s⁻¹ |
| U46A A52U | < 1e-05 s⁻¹ |
| U46A A53U | 5.78e-05 s⁻¹ |
| C8A C50U G51C A53C U65A | < 1e-05 s⁻¹ |
| A14U G43U G51U | < 1e-05 s⁻¹ |
| G29A C34A G40U G41C G44U U49G C50A C71U | < 1e-05 s⁻¹ |
| C50G U65A | 6.61e-05 s⁻¹ |
| G32A C61G | < 1e-05 s⁻¹ |
| A12G U30G | < 1e-05 s⁻¹ |
| G38U U57G C68A U69A | 6.8e-05 s⁻¹ |
| A53C G62U | < 1e-05 s⁻¹ |
| G41A G59A | < 1e-05 s⁻¹ |
| G38U G60A | < 1e-05 s⁻¹ |
| C8U G51U C70U | < 1e-05 s⁻¹ |
| G21A G44U U57G C67A | < 1e-05 s⁻¹ |
| C16A A42U G63U | < 1e-05 s⁻¹ |
| G43U G44A | < 1e-05 s⁻¹ |
| C8U C10G | < 1e-05 s⁻¹ |
| G13U U54A | 4.3e-05 s⁻¹ |
| A36C G41A C68A | < 1e-05 s⁻¹ |
| A6C G43U C67A | < 1e-05 s⁻¹ |
| U46G G60U | < 1e-05 s⁻¹ |
| U45G U56G | 8.78e-05 s⁻¹ |
| U56G A64G | 0.000369 s⁻¹ |
| G38U A64C | < 1e-05 s⁻¹ |
| G32A G43C | < 1e-05 s⁻¹ |
| A33U G44C C68U | < 1e-05 s⁻¹ |
| G63A | < 1e-05 s⁻¹ |
| G37C U46C | < 1e-05 s⁻¹ |
| U54A U65G | 5.78e-05 s⁻¹ |
| C10U A14C A36G G41A | < 1e-05 s⁻¹ |
| C8G C16A A42U U65A | < 1e-05 s⁻¹ |
| U54A C68U | 0.000391 s⁻¹ |

Taken from the supplement of paper PMC7125110.
